# System: male Swiss-Webster mice
# Procedure Summary: Potentiation of the depressant effects of sodium barbital, loss of the righting reflex in the mouse
# Assay type: in vivo
# Experimental Setup: mouse, in vivo, ip
Reported Property: Dose of compound which produced loss of righting reflex in 50% of treated animals (mg/kg)
Note: unit mg/kg is implicit; provide only the numeric part.

Solved entries (count: 2):
Cc1cc(C)n2nccc2n1 [H, 5,7-dimethyl pyrazolo[1,5-a]pyrimidine, reference compound] | 118.8
Cc1cc(C)n2ncc(Br)c2n1 | 61.9

Req: For the molecule shown here, "Cc1cc(C)n2ncc(I)c2n1" , give the reported Dose of compound which produced loss of righting reflex in 50% of treated animals.
Resp: 142.8

Req: For the molecule shown here, "Cc1cc(C)n2ncc(Cl)c2n1" , give the reported Dose of compound which produced loss of righting reflex in 50% of treated animals.
Resp: 60.9

Req: For the molecule shown here, "Cc1cc(C)n2ncc(F)c2n1" , give the reported Dose of compound which produced loss of righting reflex in 50% of treated animals.
Resp: 148.5

* * *

# System: male Sprague-Dawley rats
# Procedure Summary: Antianxiety activity: stimulation of drinking activity of the rat in a passive avoidance behavioral paradigm
# Assay type: in vivo
# Experimental Setup: po, 1 hr prior to testing, read-out: ED50 (dose producing 50% of maximum effect)
# ED50 listing for each entry below
Note: unit mg/kg is implicit; provide only the numeric part.

Solved entries (count: 2):
Cc1cc(C)n2ncc(Br)c2n1 | 9.5
Cc1cc(C)n2ncc(F)c2n1 | 76.2

Req: For the compound shown here, Cc1cc(C)n2nccc2n1 [H, 5,7-dimethyl pyrazolo[1,5-a]pyrimidine, reference compound] , give the reported ED50.
Resp: 43.6

Req: For the compound shown here, "Cc1cc(C)n2ncc(I)c2n1" , give the reported ED50.
Resp: 95.9

Req: For the compound shown here, "Cc1cc(C)n2ncc(Cl)c2n1" , give the reported ED50.
Resp: 7.8

* * *

# Procedure Summary: Potentiation of the depressant effects of ethanol, loss of the righting reflex in the mouse
# Experimental Setup: in vivo, po
Reported Property: NOAEL (mg/kg)
Note: unit mg/kg is implicit; provide only the numeric part.

Req: For the compound shown here, CNC1=Nc2ccc(Cl)cc2C(c2ccccc2)=[N+]([O-])C1 [Chlordiazepoxide, chlordiazepoxide, reference compound] , give the reported NOAEL.
Resp: 4

* * *

# Procedure Summary: in vivo
# Experimental Setup: mouse, po
# NOAEL listing for each entry below
Note: unit mg/kg is implicit; provide only the numeric part.

Cc1cc(C)n2ncc(F)c2n1 [IV] | 100
Cc1cc(C)n2nccc2n1 [H, 5,7-dimethyl pyrazolo[1,5-a]pyrimidine, reference compound] | 300
Cc1cc(C)n2ncc(Cl)c2n1 [II] | 200

Req: For the molecule shown here, Cc1cc(C)n2ncc(I)c2n1 [III] , give the reported NOAEL.
Resp: 200

Req: For the molecule shown here, Cc1cc(C)n2ncc(Br)c2n1 [Example I] , give the reported NOAEL.
Resp: 400

* * *

# Test system: 3',5'-Cyclic AMP Phosphodiesterase (PDE)
# Procedure Summary: Inhibition of 3',5'-cyclic AMP phosphodiesterase (PDE) isolated from rabbit lung, low affinity (Fraction I, high Km)
# Assay type: biochemical
Reported Property: α (relative inhibitory activity as compared with theophylline)
# respond with the number and nothing more

Cc1cc(C)n2ncc(I)c2n1 | 3.5
Cc1cc(C)n2ncc(Br)c2n1 | 2.4
Cc1cc(C)n2nccc2n1 [H, 5,7-dimethyl pyrazolo[1,5-a]pyrimidine, reference compound] | 0.32

Let us examine a further case.
Req: For the compound shown here, "Cc1cc(C)n2ncc(Cl)c2n1" , give the reported α (relative inhibitory activity as compared with theophylline).
Resp: 3.1

* * *

# pIC50 listing for each entry below
# Test System: 3',5'-Cyclic AMP Phosphodiesterase (PDE)
# Procedure Summary: Inhibition of 3',5'-cyclic AMP phosphodiesterase (PDE) isolated from rabbit lung, low affinity (Fraction I, high Km)
# Type: biochemical
# Experimental Setup: cAMP approx. 5 × 10^-4 M, read-out: I50
Scale: pIC50 equals -log10([C]), with [C] in mol/L.

Solved entries (count: 3):
Cc1cc(C)n2nccc2n1 [H, 5,7-dimethyl pyrazolo[1,5-a]pyrimidine, reference compound] | 2.70
Cc1cc(C)n2ncc(Br)c2n1 | 3.57
Cc1cc(C)n2ncc(I)c2n1 | 3.68

Let us examine a further case.
Req: For the compound shown here, "Cc1cc(C)n2ncc(Cl)c2n1" , give the reported pIC50.
Resp: 3.68
